molecular target: apical domain of CD71 (Screen 3: 'cynomolgus apical domain of human CD71') (cynomolgus (as paragraph 454 words it; ambiguous)); assay: primary ELISA, RLU ratio to HSA
value_kind: Apical domain:HSA
// no unit, no text: just the number

Here's what some known entries look like.
binder	assay_value
CD71-binding FN3 domain SEQ ID NO: 244 (designed binder) MSLPAPKNLVVSRVTEDSARLSWTAPDAAFDSFEIGYFENLYLGEAIVLTVPGSERSYDLTGLKPGTEYVVFIGGVKGGEYSIPLSAIFTT	630
CD71-binding FN3 domain SEQ ID NO: 286 (designed binder) MSLPAPKNLVVSRVTEDSARLSWTAPDAAFDSFEIVYAEPVRFGEAIVLTVPGSERSYDLTGLKPGTEYWVQIGGVKGGEWSSPLSAIFTT	262
CD71-binding FN3 domain SEQ ID NO: 293 (designed binder) MSLPAPKNLVVSRVTEDSARLSWTAPDAAFDSFFIGYLEPQPPGEAIDLYVPGSERSYDLTGLKPGTEYNVTIQGVKGGFPSHPLVATFTT	605
CD71-binding FN3 domain SEQ ID NO: 299 (designed binder) MSLPAPKNLVVSRVTEDSARLSWTAPDAAFDSFEIAYFENLYLGEAIVLTVPGSERSYDLTGLKPGTEYWVQIGGVKGGNWSAPLSAIFTT	614
CD71-binding FN3 domain SEQ ID NO: 282 (designed binder) MSLPAPKNLVVSRVTEDSARLSWTAPDAAFDSFDIGYFELTWYGEAIVLTVPGSERSYDLTGLKPGTEYWVSIGGVKGGRFSEPLYARFTT	365

What the record says about CD71-binding FN3 domain SEQ ID NO: 277 (designed binder) MSLPAPKNLVVSRVTEDSARLSWTAPDAAFDSFEIGYFELTYYGEAIVLTVPGSERSYDLTGLKPGTEYWVQIGGVKGGGFSEPLSAIFTT : Apical domain:HSA is 383

What the record says about CD71-binding FN3 domain SEQ ID NO: 243 (designed binder) MSLPAPKNLVVSRVTEDSARLSWTAPDAAFDSFFIGYLEPQPPGEAIHLYVPGSERSYDLTGLKPGTEYNVTIQGVKGGEWSAPLSAIFTT : Apical domain:HSA is 582

What the record says about CD71-binding FN3 domain SEQ ID NO: 319 (designed binder) MSLPAPKNLVVSRVTEDSARLSWTAPGAAFDSFEIGYFENLYLGEAIVLTVPGSERSYDLTGLKPGTEYWVQIGGVKGGVWSVPLSAIFTT : Apical domain:HSA is 187
